study.target: PPO2_F383I mutant PPO2 enzyme (Helianthus annuus, UniProt A0A251TWC2, F383I)
Sequence (A0A251TWC2 entry or part of it F383I): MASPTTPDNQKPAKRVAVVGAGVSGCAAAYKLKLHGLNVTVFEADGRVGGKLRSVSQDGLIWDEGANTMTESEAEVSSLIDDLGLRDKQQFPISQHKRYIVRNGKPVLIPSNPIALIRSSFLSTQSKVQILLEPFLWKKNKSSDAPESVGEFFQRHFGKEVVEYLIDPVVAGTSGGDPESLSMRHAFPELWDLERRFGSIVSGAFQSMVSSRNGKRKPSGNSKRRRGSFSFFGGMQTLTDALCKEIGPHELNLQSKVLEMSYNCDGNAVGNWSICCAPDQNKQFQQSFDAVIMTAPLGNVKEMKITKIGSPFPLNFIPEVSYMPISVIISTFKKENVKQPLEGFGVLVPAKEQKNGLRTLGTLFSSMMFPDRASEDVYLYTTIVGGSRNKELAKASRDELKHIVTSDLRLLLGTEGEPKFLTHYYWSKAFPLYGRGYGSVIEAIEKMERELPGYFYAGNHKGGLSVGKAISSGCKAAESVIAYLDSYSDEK
experiment.description: In vitro PPO inhibition assay, mutant enzyme (Example 5)
Format: biochemical, sunflower
condition.parameters: PPO2_F383I IC50, purified enzyme expressed in E. coli, herbicide 10^-5 M to 10^-11 M
Protocol: To test whether the PPO2_F383I is the main cause of the observed saflufenacil tolerance, we used an in vitro to compare the inhibition potency (IC50) of different PPO inhibiting herbicides between wild-type and mutant PPO2 enzyme. […] Purified protein was mixed with different concentrations of the herbicide ranging from 10^−5M to 10^−11M and protein activity was measured. Protein activity is defined as the fluorescence per minute that the reaction generates. […]
parameter: IC50 (µM)
Could you give me the number in µM? Just the number is fine.

**Q:** For the record CC(C)N(C)S(=O)(=O)NC(=O)c1cc(-n2c(=O)cc(C(F)(F)F)n(C)c2=O)c(F)cc1Cl , what value of IC50 is listed for PPO2_F383I mutant PPO2 enzyme (Helianthus annuus, UniProt A0A251TWC2, F383I)?
**A:** 4.23
